- testProtocol: Inhibition of HCV genotype 1b NS5B RNA dependent RNA polymerase C316N mutant infected in human HuH7 replicon cells after 3 days by luciferase reporter gene assay
Listing of entries alongside the reported EC50.
observationType: EC50 (nM)

1) CNC(=O)c1c(-c2ccc(F)cc2)oc2cc(N(CCO)S(C)(=O)=O)c(-c3cccc(C(=O)NC4(c5ccccc5)CC4)c3)cc12; 64
2) CNC(=O)c1c(-c2ccc(F)cc2)oc2cc(N(CCO)S(C)(=O)=O)c(-c3cccc(C(=O)NC4(c5ccccn5)CC4)c3)cc12; 385
3) CNC(=O)c1c(-c2ccc(F)cc2)oc2ccc(-c3cccc(C(=O)NC4(c5ccccn5)CC4)c3)cc12; 75
4) CCN(c1cc2oc(-c3ccc(F)cc3)c(C(=O)NC)c2cc1-c1cccc(C(=O)NC2(c3ncccn3)CC2)c1)S(C)(=O)=O; 44
5) CCNc1cc2oc(-c3ccc(F)cc3)c(C(=O)NC)c2cc1-c1ccc(OC)c(C(=O)NC2(c3ncccn3)CC2)c1; 3.6
